test system: HCT116; assay: efficacy (fitted maximal change in viability relative to DMSO control); higher = less cytotoxic (negative = loss of viability); conditions: 48 h
Counter-ions that a name gives are not always drawn.
Lab note: class by efficacy, see lower band = under -80%, central band = from -80% up to -30%, upper band = -30% and over

* C[C@@H]1C[C@H]2[C@@H]3\C=C(C)/C4=C/C5=C(C[C@]4(C)[C@H]3[C@@H](O)C[C@]2(C)[C@@]1(O)C(=O)CO)C=N[N]5C6=CC=CC=C6 | lower band
* CN1C2CCC1CC(OC(=O)C(CO)c1ccccc1)C2 (centres undefined) [Atropine (sulfate monohydrate)] | upper band
* COc1cc2c(cc1O)CC[C@@H]1[C@@H]2CC[C@]2(C)[C@@H](O)CC[C@@H]12 | central band
* O=C(Nc1ccc([S+](=O)([O-])N2CCOCC2)cc1)c1cc(Cl)ccc1N[S+](=O)([O-])c1ccc(Cl)s1 | central band
* CC(C)[C@](O)(c1ccc2cc(OC(F)F)c(OC(F)F)cc2c1)c1c[nH]nn1 | central band
* CCCN(CCC)C(=O)C(CCC(=O)O)NC(=O)c1ccccc1 (centres undefined) [Proglumide] | upper band
* [NH2][Pt]([NH2])([Cl])[Cl] [Cisplatin] | upper band
* ClC1=C[NH]N=C1C\2NC(=N\C3=C2C(=O)CCC3)/NC4=NC5=CC=CC=C5O4 (centres undefined) | central band
* COC(=O)C/1=C(C)/N/C(=C(\C1C2=CC(=CC=C2)[N+]([O-])=O)C(=O)OCCCN3CCC(CC3)(C4=CC=CC=C4)C5=CC=CC=C5)C (centres undefined) | lower band
* Fc1cccc(-n2cnc3c(NCc4nc5ccc(F)c(F)c5[nH]4)nc(N4CCOCC4)nc32)c1 | central band
* Nc1ncccc1-c1nc2ccc(-c3ccccc3)nc2n1-c1ccc(C2(N)CCC2)cc1 | lower band
* Cc1c(-c2c(-c3ccc(F)o3)sc3ncnc(O[C@@H](Cc4ccccc4OCc4ccnn4CC(F)(F)F)C(=O)O)c23)ccc(OCCN2CCN(C)CC2)c1Cl | upper band
* CN(CC(=O)N(Cc1ccc(C2CCCCC2)cc1)c1ccc(C(=O)O)c(O)c1)[S+](=O)([O-])c1c(F)c(F)c(F)c(F)c1F | upper band
* CCCCc1oc2ccc(N[S+](C)(=O)[O-])cc2c1C(=O)c1ccc(OCCCN(CCCC)CCCC)cc1 [Dronedarone hydrochloride] | lower band
* CCC(CC)CC1(C(=O)Nc2ccccc2SC(=O)C(C)C)CCCCC1 | upper band
* CCC[S+](=O)([O-])c1nc(NC2CC2)cc(-c2ccc3c(ccn3C3CC(C)(C)NC(C)(C)C3)c2)n1 | lower band
* CN(C)Cc1ccc([S+](=O)([O-])n2ccc(/C=C/C(=O)NO)c2)cc1 | lower band
* O=C(c1ccc(/C=C/c2n[nH]c3ccccc23)cc1)N1CCNCC1 | lower band
* Clc1ccccc1C(c1ccccc1)(c1ccccc1)n1cccn1 | central band
* N[S+](=O)([O-])c1cc(Cl)c(Cl)c([S+](N)(=O)[O-])c1 [Diclofenamide] | upper band
* C/C1=C/C[C@@H](/C(C)=C/c2csc(C)n2)OC(=O)C[C@H](O)C(C)(C)C(=O)[C@H](C)[C@@H](O)[C@@H](C)CCC1 | central band
* O=C(/C=C/c1ccc(O)cc1)c1ccc(O)cc1O | central band
* CN1CCN(c2ccc3nc(-c4cc(C(C)(C)C)c(OCCCC(=O)NCCCN=[N+]=[N-])c(C(C)(C)C)c4)[nH]c3c2)CC1 | lower band
* Cc1cc(OCCCc2c3n(c4c(-c5c(C)nn(C)c5C)c(Cl)ccc24)[C@H](C)CN(c2cn(C)c4ccc(C(=O)O)cc24)C3=O)cc(C)c1Cl | lower band
* CC/1=C/2C[C@H]3C(=C)CCC[C@]3(C)/C=C2OC1=O [Atractylenolide I] | upper band
* CCOC(=O)c1c(C)n(C)c2ccc(O)cc12 [Mecarbinate] | upper band

---

test system: HCT116; experiment: efficacy (fitted maximal change in viability relative to DMSO control); higher = less cytotoxic (negative = loss of viability); conditions: 48 h
Structures can show the parent of a compound that is named as a salt.
Please mark met if the recorded efficacy is equal to or greater than -70%, and not met if it falls below.

• CN1CCN(C(=O)c2ccc3cc(CCNc4ncnc5ccc(C#N)cc45)ccc3c2)CC1 [Senexin-B] = not met
• N[C@@H](Cc1cc(I)c(Oc2cc(I)c(O)c(I)c2)c(I)c1)C(=O)O [L-Thyroxine] = met
• FC(F)c1nc2ccccc2n1-c1nc(N2CCOCC2)nc(N2CCOCC2)n1 [ZSTK-474] = met
• Cc1[nH]c(/C=C2\C(=O)Nc3ccc(F)cc32)c(C)c1C(=O)NC[C@H](O)CN1CCOCC1 = not met
• CCC1CCCCN1C(=O)n1ncc(C(O)(c2ccccc2)c2ccccc2)n1 (stereo not given) [ML226] = met
• CCN(CC)C(=S)SSC(=S)N(CC)CC [Disulfiram] = not met
• C/C(O)=C(\C#N)C(=O)Nc1cc(Br)ccc1Br [LFM-A13] = met
• CO[C@H]1/C=C\C=C(\C)C(=O)NC2=CC(=O)C(NCCN(C)C)=C(C[C@@H](C)C[C@H](OC)[C@H](O)[C@@H](C)/C=C(/C)[C@@H]1OC(N)=O)C2=O [Alvespimycin hydrochloride] = not met
• Cc1cc(Nc2ncc(Cl)c(Nc3ccccc3[S+](=O)([O-])C(C)C)n2)c(OC(C)C)cc1C1CCNCC1 [Ceritinib] = not met
• N=C(N)NC(=O)c1nc(Cl)c(N)nc1N [Amiloride hydrochloride] = met
• CC(C)(C)[S+](=O)([O-])c1ccc2nccc(Nc3n[nH]c4ccc(F)cc34)c2c1 [GSK-583] = met
• CC1(COc2ccc3c(c2)ncn3-c2ccc3cccc(N4CCC(N)CC4)c3n2)COC1 [Crenolanib] = not met
• CC(=O)Nc1ccc([C@H](C)C(=O)Nc2ncc(C(C)C)s2)cc1 = met
• CN(C)[C@H]\1[C@@H]2C[C@H]3C(=C(O)\[C@]2(O)C(=O)\C(=C1O)C(N)=O)/C(=O)C4=C(O)C=CC=C4[C@@]3(C)O [Tetracycline hydrochloride] = met

---

system: HCT116; experiment: efficacy (fitted maximal change in viability relative to DMSO control); higher = less cytotoxic (negative = loss of viability); conditions: 48 h
PROPERTY: efficacy (%)

- N#C/N=C(\NCCCCCCOc1ccc(Cl)cc1)Nc1ccncc1 [GMX-1778]: -93.3
- Oc1nc(-c2ccc(C(F)(F)F)cc2)nc2c1CSCC2 [NVP-XAV-939]: -13.5
- Cc1cc(-c2ncc(CC(=O)Nc3ccc(-c4cnccn4)cn3)cc2C)ccn1 [LGK-974]: -52.5
- FC(F)(F)c1ccc(Nc2nc(-c3c(C(F)(F)F)nc4ccccn34)cs2)cc1 [PTC-691]: -73.4
- Cc1cc2c(cc1CC(=O)c1sccc1[S+](=O)([O-])Nc1onc(C)c1Cl)OCO2 [Sitaxentan]: -43.1
- C[C@H](NC(=O)C(=O)Nc1ccccc1C(C)(C)C)C(=O)N[C@@H](CC(=O)O)C(=O)COc1c(F)c(F)cc(F)c1F [Emricasan]: -89.4
- CN(C)c1ccc2cc(C(=O)N[C@@H](CCCNC(=N)CCl)C(=O)NCc3ccccc3)ccc2c1 [YW3-56]: -56.2
- OCc1ccc(-c2nn(Cc3ccccc3)c3ccccc23)o1 [Lificiguat]: -57.1
- ClC/1=C(NCCN2CCOCC2)/C(=O)C3=C(C=CC=N3)C1=O [DA-3003-1]: -90.7
- Clc1ccc(COC(Cn2ccnc2)c2ccc(Cl)cc2Cl)cc1 (stereo unspecified) [Econazole nitrate]: -83.5
- Nc1nc(N)c2nc(-c3cccc(Cl)c3)c(N)nc2n1 [Epiblastin A]: -85
- COc1cc2ncnc(Nc3ccc(F)c(Cl)c3)c2cc1NC(=O)/C=C/CN1CCCCC1 [Dacomitinib]: -99.1
- CCOC(=O)[C@H](CCc1ccccc1)N[C@@H](C)C(=O)N1[C@H](C(=O)O)C[C@@H]2CCC[C@@H]21 [Ramipril]: -13.7
- CCN1CCC(n2cc(CNc3cc(Cl)c4ncc(C#N)c(Nc5ccc(F)c(Cl)c5)c4c3)nn2)CC1 [Wyeth Cot Inhibitor 2]: -98.5
- Cc1[nH]c(/C=C2\C(=O)Nc3ccc([S+](=O)([O-])Cc4c(Cl)cccc4Cl)cc32)c(C)c1C(=O)N1CCC[C@@H]1CN1CCCC1: -92
- OC[C@H]1OC(O)C[C@@H](O)[C@@H]1O (stereo partly specified) [2-Deoxyglucose]: -11.9

---

system: HCT116; assay: efficacy (fitted maximal change in viability relative to DMSO control); higher = less cytotoxic (negative = loss of viability); settings: 48 h;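 further: Luminescence-based viability readout, five doses per compound, normalized against on-plate DMSO and empty-well controls, followed by dose-response curve fitting for every drug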
PROPERTY: efficacy (%)

- c1cn2cc(-c3ccc4cn[nH]c4c3)nc(Nc3ccc(N4CCOCC4)cc3)c2n1: -34.9
- CCCCC(=O)O[C@@]1([C@@H](C)C[C@H]2[C@@H]3CCC/4=C/C(=O)/C=C\[C@]4(C)[C@@]3(F)[C@@H](O)C[C@]12C)C(=O)CO [Betamethasone valerate]: -7.12
- Cc1cc(C[S+](=O)([O-])c2ccccc2)cc(OCc2ccc(CN3CCC[C@@H]3CO)cc2)c1: -92.7
- C=CCn1c(=O)c2cnc(Nc3ccc(N4CCN(C)CC4)cc3)nc2n1-c1cccc(C(C)(C)O)n1: -73.8
- C=C1C(=O)OC(CCCCCCCC)C1C(=O)O (centres undefined): -6.41
- O=C(NC[C@H](O)CN1CCc2ccccc2C1)c1ccnc(NC2CCC2)c1: -5.9
- Cc1ncc(NC(=O)c2cccc(C(F)(F)F)c2)cc1-c1cnc(OC2CCOCC2)c(N2CCOCC2)c1: -84.5
- CCCCc1ccc(N[S+](=O)([O-])c2ccc(C)c(C(=O)N3CCN(c4cccc(C)c4C)CC3)c2)cc1: -48.4
- C[C@]12CC[C@H]3[C@@H](CC(=C)\C4=C\C(=O)\C=C/[C@]34C)[C@@H]1CCC2=O: -65
- CCOC(=O)C(C)OC1=CC=CC2=C1\C=C/N(CC(=O)NC3=CC=C4OCCOC4=C3)C2=O (centres undefined): -19.6
- CN(C)CCc1c[nH]c2ccc(C[S+](=O)([O-])N3CCCC3)cc12: -6.46
- COc1ccc(-c2cc(C(O)C3CCCCN3)c3ccccc3n2)cc1 (centres undefined): -90.9
- Cc1ccc(C(=O)Nc2ccc([S+](=O)([O-])O)c3cc([S+](=O)([O-])O)cc([S+](=O)([O-])O)c23)cc1NC(=O)c1cccc(NC(=O)Nc2cccc(C(=O)Nc3cc(C(=O)Nc4ccc([S+](=O)([O-])O)c5cc([S+](=O)([O-])O)cc([S+](=O)([O-])O)c45)ccc3C)c2)c1 [Suramin sodium]: -20.9
- OC1CCC(Nc2ncc3nc(Nc4c(F)cc(F)cc4F)n([C@@H]4CCOC4)c3n2)CC1 (some centres undefined): -43.3
